# measurement_target: T1, Anti-PSMA Fab (SEQ ID NOs: 19, 20)
# T1 construct: Biotinylated and captured on neutravidin coated plates in the phage ELISA; also called 006 PSMA Fab
# measurement_protocol: phage binding ELISA; PSMA Fab on plate pre-incubated with PSMA antigen as competitor, anti-M13 HRP detection;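 further: crude clonal phage supernatants added without washing to wells preincubated with PSMA in blocking buffer, compared with wells receiving blocking buffer only, then bound phage detected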
Where no end group is shown, it is not given here.
recorded_endpoint: Phage binding ELISA, Anti-PSMA Fab signal in the presence of PSMA

[
  {
    "binder": "LEMWCVPAWMCSGF [Phage-1964]",
    "measured_value": 0.0771
  },
  {
    "binder": "EGIWCTPAWMCMGF [Phage-1961]",
    "measured_value": 0.0798
  },
  {
    "binder": "HEKWCIPEWMCVVT [Phage-1954]",
    "measured_value": 0.0642
  },
  {
    "binder": "GEIWCIPPWMCYAP [Phage-1955]",
    "measured_value": 0.0825
  },
  {
    "binder": "MVKWCKPAWMCDVI [Phage-1965]",
    "measured_value": 0.078
  },
  {
    "binder": "MPKWCTPAWMCAHQ (cysteine pairing not given here; also: displayed as fusion to phage pIII) [Phage-1952]",
    "measured_value": 0.0835
  },
  {
    "binder": "FEKWCIPDWMCQVM [Phage-1960]",
    "measured_value": 0.0817
  }
]
